target: mPGES-1 in A549 cells (Homo sapiens (Human)); assay: A549 cell-based assay (PGE2 formation, 50% human serum); conditions: IL-1β 5 ng/ml, 10 nM arachidonic acid, 20-24 h, read-out: mPGES-1 inhibitory effect IC50 in the cell assay
Sequence (O14684 whole entry): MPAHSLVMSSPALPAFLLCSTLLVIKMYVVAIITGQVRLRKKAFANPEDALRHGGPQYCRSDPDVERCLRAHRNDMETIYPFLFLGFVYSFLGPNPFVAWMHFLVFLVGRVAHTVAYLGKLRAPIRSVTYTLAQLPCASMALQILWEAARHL
List of log10 IC50 values.
assay readout: log10 IC50 (log10 of the value in nM)

compound="Cn1c(Nc2c(Cl)ccc(CNC(=O)c3cc[nH]n3)c2Cl)nc2cc(C(=O)N[C@H]3CC[C@H](C(F)(F)F)CC3)c(N3CC4CC4C3)cc21 (stereo partly drawn) [Example 230]" assay_readout="log10 IC50" recorded_value=1.60
compound="Cn1c(Nc2c(Cl)ccc(CNC(=O)C(C)(C)C)c2Cl)nc2cc(C(=O)NCC(F)(F)F)c(N3CCC(F)(F)C3)cc21 [Example 26]" assay_readout="log10 IC50" recorded_value=0.56
compound="Cn1c(Nc2c(Cl)ccc(CNC(=O)C(C)(C)C)c2Cl)nc2cc(C(=O)N[C@H]3CC[C@H](C(F)(F)F)CC3)c(N3CC[C@H](F)C3)cc21 [Example 18]" assay_readout="log10 IC50" recorded_value=0.60
compound="Cc1n[nH]c(CN(C)c2cc3c(cc2C(=O)N[C@H]2CC[C@H](C(F)(F)F)CC2)nc(Nc2c(Cl)ccc(CNC(=O)C(C)(C)F)c2Cl)n3C)n1 [Example 115]" assay_readout="log10 IC50" recorded_value=0.30
compound="Cn1c(Nc2c(Cl)ccc(CNC(=O)C(C)(C)C)c2Cl)nc2cc(C(=O)NCCCC(F)(F)F)c(N3CCC(F)(F)C3)cc21 [Example 46]" assay_readout="log10 IC50" recorded_value=0.85
compound="Cn1c(Nc2c(Cl)ccc(CNC(=O)C(C)(C)C)c2Cl)nc2cc(C(=O)N[C@H]3CC[C@H](C(F)(F)F)CC3)c(N3CC(O)C3)cc21 [Example 87]" assay_readout="log10 IC50" recorded_value=0.90
compound="CN(Cc1nnc[nH]1)c1cc2c(cc1C(=O)N[C@H]1CC[C@H](C(F)(F)F)CC1)nc(Nc1c(Cl)ccc(CNC(=O)C(C)(C)C)c1Cl)n2C [Example 114]" assay_readout="log10 IC50" recorded_value=0.54
compound="Cn1c(Nc2c(Cl)ccc(CNC(=O)C(C)(C)C)c2Cl)nc2cc(C(=O)N[C@H]3CC[C@@H](C(F)(F)F)CC3)c(N3CC4CC4C3)cc21 (stereo partly drawn) [Example 63]" assay_readout="log10 IC50" recorded_value=0.78
compound="Cc1cc(C)nc(C(=O)NCc2ccc(Cl)c(Nc3nc4cc(C(=O)N[C@H]5CC[C@H](C(F)(F)F)CC5)c(N5CC6CC6C5)cc4n3C)c2Cl)c1 (stereo partly drawn) [Example 202]" assay_readout="log10 IC50" recorded_value=1.76
compound="Cn1c(Nc2c(Cl)ccc(CNC(=O)C(C)(C)C)c2Cl)nc2cc(C(=O)NC3CCC(F)(F)CC3)c(N3CCC(C(F)(F)F)CC3)cc21 [Example 60]" assay_readout="log10 IC50" recorded_value=0.00
compound="Cn1c(Nc2c(Cl)ccc(CNC(=O)C(C)(C)C)c2Cl)nc2cc(C(=O)Nc3ccc(OC(F)(F)F)cc3)c(N3CC4CC4C3)cc21 (stereo not drawn) [Example 64]" assay_readout="log10 IC50" recorded_value=0.41
